Test: Lipophilicity, SlogP of the compound
Assay type: physicochemical
Settings: octanol/water
Below, each entry is listed with its recorded logP.
Lab note: write the figure by itself, no unit.

## Input Tell me the measured logP of COc1ccc(C(=O)OCC2(CO)C/C(=C/c3ccncc3)C(=O)O2)cc1 (stereo not given) , please.
## Output 2.01

###

Molecular target: Protein kinase C alpha type (Homo sapiens)
Test: Displacement of [3H]PDBu from human recombinant PKCalpha expressed in Escherichia coli […] (DE3)
quantity_kind: Ki (nM)
Form entry: value (nM) — number only.

Answered examples (5):
>>> df
                                   molecule                               target_desc  reading
0  CCCC(CCC)C(=O)OCC1(CO)C/C(=C\c2ccncc2)C(=O)O1 (stereo unspecified)  Protein kinase C alpha type (Homo sapiens)      627
1  COc1ccc(C(=O)OCC2(CO)C/C(=C\c3ccccn3)C(=O)O2)cc1 (stereo unspecified)  Protein kinase C alpha type (Homo sapiens)     1130
2  CCCC(CCC)C(=O)OCC1(CO)C/C(=C\c2cccnc2)C(=O)O1 (stereo unspecified)  Protein kinase C alpha type (Homo sapiens)       76
3  CCCC(CCC)C(=O)OCC1(CO)C/C(=C\c2cnc3ccccc3c2)C(=O)O1 (stereo unspecified)  Protein kinase C alpha type (Homo sapiens)     13.8
4  CN(C)c1ccc(C(=O)OCC2(CO)C/C(=C/c3cccnc3)C(=O)O2)cc1 (stereo unspecified)  Protein kinase C alpha type (Homo sapiens)    34100

## Input API: value(readout=Ki, system=Protein kinase C alpha type (Homo sapiens)) for record CC(C)CC(CC(=O)OCC1(CO)C/C(=C\c2cn(C)c3ccccc23)C(=O)O1)CC(C)C (stereo unspecified)
## Output 14.8

## Input Can you look up Ki on Protein kinase C alpha type (Homo sapiens) for CN(C)c1ccc(C(=O)OCC2(CO)C/C(=C\c3ccccn3)C(=O)O2)cc1 (stereo unspecified) ?
## Output 1020

## Input What is its Ki for Protein kinase C alpha type (Homo sapiens)? Entry: COc1ccc(C(=O)OCC2(CO)C/C(=C/c3ccccn3)C(=O)O2)cc1 (stereo unspecified)
## Output 27100

###

Assay: Lipophilicity, SlogP of the compound
Format: physicochemical
Conditions: octanol/water
Returns: string. Value is yes if measured logP is below 3, and no if it is greater than or equal to it.

Check out these entries, answers already filled in.
In [3]: df
Out[3]:
                                   compound  answer_label
0  CN(C)c1ccc(C(=O)OCC2(CO)C/C(=C/c3cnc4ccccc4c3)C(=O)O2)cc1 (configuration not stated)            no
1  CCCC(CCC)C(=O)OCC1(CO)C/C(=C/c2cccnc2)C(=O)O1 (configuration not stated)           yes

## Input Lab note: logP threshold 3. Does this compound come in strictly under it? COc1ccc(C(=O)OCC2(CO)C/C(=C/c3cnc4ccccc4c3)C(=O)O2)cc1 (configuration not stated)
## Output no

## Input Confirm or reject: logP of CN(C)c1ccc(C(=O)OCC2(CO)C/C(=C\c3cccnc3)C(=O)O2)cc1 (configuration not stated) lies strictly below 3
## Output yes

## Input Find out if reported logP for CN(C)c1ccc(C(=O)OCC2(CO)C/C(=C\c3cnc4ccccc4c3)C(=O)O2)cc1 (configuration not stated) is less than 3
## Output no

## Input Hello, I'm reviewing records and need to know if logP of CN(C)c1ccc(C(=O)OCC2(CO)C/C(=C/c3cccnc3)C(=O)O2)cc1 (configuration not stated) is below 3. Could you check?
## Output yes
